Target: Serine/threonine-protein kinase Sgk1 (Homo sapiens)
Details: at 1 µM

[
  {
    "chemSmiles": "CN(C)c1ccc(/C=C2\\C(=O)Nc3ccccc32)cc1",
    "unitAbbreviation": "%",
    "residual activity": 96
  },
  {
    "chemSmiles": "CNc1cc2c(Nc3cccc(Br)c3)ncnc2cn1",
    "unitAbbreviation": "%",
    "residual activity": 81
  },
  {
    "chemSmiles": "COc1cc2ncnc(Nc3ccc(NC(=O)c4ccccc4)cc3)c2cc1OC",
    "unitAbbreviation": "%",
    "residual activity": 141
  },
  {
    "chemSmiles": "CO[C@H]1[C@@H](OC)C[C@H](C)[C@@H](OC)C2=CC(=O)C=C(NC(=O)/C(C)=C/C=C/[C@H](OC)[C@@H](OC(N)=O)/C(C)=C/[C@@H]1C)C2=O",
    "unitAbbreviation": "%",
    "residual activity": 98
  },
  {
    "chemSmiles": "CC[n+]1c(/C=C/N(C)c2ccccc2)n(-c2ccccc2)c2ccc(-c3nc4ccccc4s3)cc21",
    "unitAbbreviation": "%",
    "residual activity": 118
  },
  {
    "chemSmiles": "c1ccc(-c2n[nH]cc2-c2ccnc3ccccc23)nc1",
    "unitAbbreviation": "%",
    "residual activity": 97
  },
  {
    "chemSmiles": "Nc1nc(Nc2ccc(S(N)(=O)=O)cc2)nn1C(=S)Nc1c(F)cccc1F",
    "unitAbbreviation": "%",
    "residual activity": 53
  },
  {
    "chemSmiles": "CN(C)CCCn1cc(C2=C(c3c[nH]c4ccccc34)C(=O)NC2=O)c2ccccc21",
    "unitAbbreviation": "%",
    "residual activity": 60
  },
  {
    "chemSmiles": "O=C(O)c1ccc2c3c1cccc3c(=O)n1c3ccccc3nc21",
    "unitAbbreviation": "%",
    "residual activity": 91
  },
  {
    "chemSmiles": "Nc1ccc2ncnc(NCCc3ccc(Oc4ccccc4)cc3)c2c1",
    "unitAbbreviation": "%",
    "residual activity": 88
  }
]

###

Target: Tyrosine-protein kinase Tec (Homo sapiens) (UniProt P42680)
Sequence (P42680 whole entry): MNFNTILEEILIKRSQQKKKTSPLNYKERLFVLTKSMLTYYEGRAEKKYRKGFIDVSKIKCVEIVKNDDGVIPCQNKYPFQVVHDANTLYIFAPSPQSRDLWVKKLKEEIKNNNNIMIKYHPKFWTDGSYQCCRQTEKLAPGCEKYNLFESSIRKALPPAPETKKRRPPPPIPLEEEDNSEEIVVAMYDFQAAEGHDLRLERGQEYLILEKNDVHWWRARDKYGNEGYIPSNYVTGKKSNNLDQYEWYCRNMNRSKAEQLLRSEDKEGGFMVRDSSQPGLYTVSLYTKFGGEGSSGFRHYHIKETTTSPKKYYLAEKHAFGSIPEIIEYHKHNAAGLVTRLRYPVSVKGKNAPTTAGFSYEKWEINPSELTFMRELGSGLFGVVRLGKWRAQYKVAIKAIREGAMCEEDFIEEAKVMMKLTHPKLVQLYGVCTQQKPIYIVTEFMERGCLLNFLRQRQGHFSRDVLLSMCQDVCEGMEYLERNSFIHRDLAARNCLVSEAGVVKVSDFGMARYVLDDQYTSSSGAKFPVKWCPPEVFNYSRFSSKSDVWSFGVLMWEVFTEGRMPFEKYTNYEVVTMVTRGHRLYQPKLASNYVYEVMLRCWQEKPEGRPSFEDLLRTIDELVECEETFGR
Details: at 10 µM
Below, each entry is listed with its recorded residual activity.
parameter: residual activity (%)

[
  {
    "chemSmiles": "Ic1cccc(CSc2nnc(-c3ccncc3)o2)c1",
    "parameter": "residual activity",
    "readoutValue": 64
  },
  {
    "chemSmiles": "CC(=O)O/N=C1\\C(=C2\\C(=O)Nc3cc(Br)ccc32)Nc2ccccc21",
    "parameter": "residual activity",
    "readoutValue": 21
  },
  {
    "chemSmiles": "Cc1cccc(-c2[nH]c(C(C)(C)C)nc2-c2ccc3c(c2)OCO3)n1",
    "parameter": "residual activity",
    "readoutValue": 91
  },
  {
    "chemSmiles": "Nc1cccc(-c2cc3c(Oc4cccc(O)c4)ncnc3[nH]2)c1",
    "parameter": "residual activity",
    "readoutValue": 0
  },
  {
    "chemSmiles": "CC(C)n1cnc2/c(=N/c3cccc(Cl)c3)nc(NCCO)[nH]c21",
    "parameter": "residual activity",
    "readoutValue": 31
  },
  {
    "chemSmiles": "Cc1ccc(NC2=CC(=O)c3sc(C)nc3C2=O)cc1",
    "parameter": "residual activity",
    "readoutValue": 93
  }
]

###

Target: Ephrin type-B receptor 4 (Homo sapiens) (UniProt P54760)
Sequence (whole entry): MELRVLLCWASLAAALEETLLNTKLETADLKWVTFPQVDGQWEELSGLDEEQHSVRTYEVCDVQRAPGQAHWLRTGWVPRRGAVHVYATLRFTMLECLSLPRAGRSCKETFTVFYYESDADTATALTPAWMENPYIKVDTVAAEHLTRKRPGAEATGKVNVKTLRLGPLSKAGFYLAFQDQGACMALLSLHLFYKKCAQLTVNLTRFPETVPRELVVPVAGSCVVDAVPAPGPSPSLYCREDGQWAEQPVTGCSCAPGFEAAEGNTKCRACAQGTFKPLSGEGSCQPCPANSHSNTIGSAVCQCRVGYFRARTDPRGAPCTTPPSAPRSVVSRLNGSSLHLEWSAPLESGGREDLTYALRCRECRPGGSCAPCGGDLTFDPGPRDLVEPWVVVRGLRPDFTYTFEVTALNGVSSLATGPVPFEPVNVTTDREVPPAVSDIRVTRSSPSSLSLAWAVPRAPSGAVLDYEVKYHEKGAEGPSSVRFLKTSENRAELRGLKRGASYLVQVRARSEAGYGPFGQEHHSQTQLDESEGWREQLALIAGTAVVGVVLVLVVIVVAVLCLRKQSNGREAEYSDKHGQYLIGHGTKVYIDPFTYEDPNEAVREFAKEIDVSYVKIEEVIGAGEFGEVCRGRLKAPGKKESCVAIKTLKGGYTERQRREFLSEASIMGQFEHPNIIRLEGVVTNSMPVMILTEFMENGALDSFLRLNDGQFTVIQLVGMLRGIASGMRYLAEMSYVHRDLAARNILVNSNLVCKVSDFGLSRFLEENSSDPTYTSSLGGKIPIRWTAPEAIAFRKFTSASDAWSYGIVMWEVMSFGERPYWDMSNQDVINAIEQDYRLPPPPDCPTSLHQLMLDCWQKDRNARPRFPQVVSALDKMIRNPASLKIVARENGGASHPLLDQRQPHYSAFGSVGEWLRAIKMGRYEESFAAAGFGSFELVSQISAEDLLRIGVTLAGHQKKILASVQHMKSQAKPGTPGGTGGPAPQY
Settings: at 10 µM
Description: Millipore: Percentage of residual kinase activity of EPHB4 at 10uM relative to control. Control inhibitor: PP2 at 30.0uM. Buffer: 8 mM MOPS pH 7.0, 0.2 mM EDTA, 10 mM MnCl2
# binarize residual activity: threshold 80% inclusive, high side satisfied, low side not satisfied

[
  {
    "chemSmiles": "CC#CC(=O)Nc1cc2c(Nc3ccc(F)c(Cl)c3)ncnc2cn1",
    "labelValue": "satisfied"
  },
  {
    "chemSmiles": "O=C1c2ccccc2-[n+]2ccc3c([nH]c4ccccc43)c21",
    "labelValue": "satisfied"
  },
  {
    "chemSmiles": "N#CCCc1ccc2c(c1)-c1[nH]c3ccc([N+](=O)[O-])cc3c1CC(=O)N2",
    "labelValue": "not satisfied"
  },
  {
    "chemSmiles": "COc1cc2ncnc(Nc3ccc(Oc4ccccc4)cc3)c2cc1OC",
    "labelValue": "satisfied"
  }
]

###

Target: Angiopoietin-1 receptor (Homo sapiens)
Settings: at 1 µM
# binarize residual activity: threshold 90% inclusive, high side condition met, low side condition not met

[
  {
    "chemSmiles": "NC(=O)c1ccc2[nH]c(-c3ccc(Oc4ccc(Cl)cc4)cc3)nc2c1",
    "labelValue": "condition met"
  },
  {
    "chemSmiles": "Cc1cccc(-c2[nH]c(C(C)(C)C)nc2-c2ccc3c(c2)OCO3)n1",
    "labelValue": "condition met"
  },
  {
    "chemSmiles": "CCOc1cc2ncnc(Nc3cccc(Br)c3)c2cc1OCC",
    "labelValue": "condition not met"
  },
  {
    "chemSmiles": "CO[C@H]1[C@@H](OC)C[C@H](C)[C@@H](OC)C2=CC(=O)C=C(NC(=O)/C(C)=C/C=C/[C@H](OC)[C@@H](OC(N)=O)/C(C)=C/[C@@H]1C)C2=O",
    "labelValue": "condition not met"
  }
]

###

Molecular target: SRSF protein kinase 3 (Homo sapiens) (UniProt Q9UPE1);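 note: residual kinase activity expressed as percent of uninhibited control, measured in MOPS buffer at pH 7.0 containing EDTA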
Sequence (Q9UPE1 whole entry): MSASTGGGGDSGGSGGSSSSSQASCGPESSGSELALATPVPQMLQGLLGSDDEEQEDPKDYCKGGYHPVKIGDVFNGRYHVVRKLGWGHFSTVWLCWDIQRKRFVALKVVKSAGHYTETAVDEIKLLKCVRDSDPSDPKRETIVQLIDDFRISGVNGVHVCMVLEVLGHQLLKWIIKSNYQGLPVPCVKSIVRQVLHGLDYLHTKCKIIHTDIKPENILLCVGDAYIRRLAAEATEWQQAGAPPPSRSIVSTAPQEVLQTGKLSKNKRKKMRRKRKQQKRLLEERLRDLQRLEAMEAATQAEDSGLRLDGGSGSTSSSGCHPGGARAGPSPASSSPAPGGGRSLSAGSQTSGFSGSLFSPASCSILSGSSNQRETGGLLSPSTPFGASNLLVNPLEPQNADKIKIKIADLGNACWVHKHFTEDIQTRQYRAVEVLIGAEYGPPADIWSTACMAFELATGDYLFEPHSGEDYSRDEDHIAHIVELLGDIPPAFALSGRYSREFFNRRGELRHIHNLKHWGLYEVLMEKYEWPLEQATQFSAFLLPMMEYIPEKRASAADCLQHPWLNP
Settings: at 1 µM
Description: Millipore: Percentage of residual kinase activity of SRPK3 at 1uM relative to control. Control inhibitor: Phosphoric acid* at 0.3uM. Buffer: 8 mM MOPS pH 7.0, 0.2 mM EDTA
Below, each entry is listed with its recorded residual activity.
parameter: residual activity (%)

[
  {
    "chemSmiles": "COc1ccc(OC)c2c(=S)c3ccccc3[nH]c12",
    "studySystem": "SRSF protein kinase 3 (Homo sapiens) (UniProt Q9UPE1)",
    "parameter": "residual activity",
    "readoutValue": 103
  },
  {
    "chemSmiles": "N#CC(C#N)=C(N)/C(C#N)=C/c1ccc(O)cc1",
    "studySystem": "SRSF protein kinase 3 (Homo sapiens) (UniProt Q9UPE1)",
    "parameter": "residual activity",
    "readoutValue": 119
  },
  {
    "chemSmiles": "CN(C)c1ccc(/C=C2\\C(=O)Nc3ccccc32)cc1",
    "studySystem": "SRSF protein kinase 3 (Homo sapiens) (UniProt Q9UPE1)",
    "parameter": "residual activity",
    "readoutValue": 103
  },
  {
    "chemSmiles": "CO[C@@H]1[C@H](N(C)C(=O)c2ccccc2)C[C@H]2O[C@]1(C)n1c3ccccc3c3c4c(c5c6ccccc6n2c5c31)C(=O)NC4",
    "studySystem": "SRSF protein kinase 3 (Homo sapiens) (UniProt Q9UPE1)",
    "parameter": "residual activity",
    "readoutValue": 96
  },
  {
    "chemSmiles": "CC(C)n1cnc2/c(=N/c3cccc(Cl)c3)nc(NCCO)[nH]c21",
    "studySystem": "SRSF protein kinase 3 (Homo sapiens) (UniProt Q9UPE1)",
    "parameter": "residual activity",
    "readoutValue": 61
  },
  {
    "chemSmiles": "Cc1cc(Nc2nc(-c3ccccc3)nc3ccccc23)n[nH]1",
    "studySystem": "SRSF protein kinase 3 (Homo sapiens) (UniProt Q9UPE1)",
    "parameter": "residual activity",
    "readoutValue": 46
  },
  {
    "chemSmiles": "Ic1cccc(CSc2nnc(-c3ccncc3)o2)c1",
    "studySystem": "SRSF protein kinase 3 (Homo sapiens) (UniProt Q9UPE1)",
    "parameter": "residual activity",
    "readoutValue": 90
  },
  {
    "chemSmiles": "O=C1NC(=O)c2cc(Nc3ccc(F)cc3)c(Nc3ccc(F)cc3)cc21",
    "studySystem": "SRSF protein kinase 3 (Homo sapiens) (UniProt Q9UPE1)",
    "parameter": "residual activity",
    "readoutValue": 106
  },
  {
    "chemSmiles": "Oc1ccc(Nc2nc(-c3ccc(Cl)cc3)cs2)cc1",
    "studySystem": "SRSF protein kinase 3 (Homo sapiens) (UniProt Q9UPE1)",
    "parameter": "residual activity",
    "readoutValue": 110
  },
  {
    "chemSmiles": "N#Cc1cnc2cnc(NCc3cccnc3)cc2c1Nc1ccc(F)c(Cl)c1",
    "studySystem": "SRSF protein kinase 3 (Homo sapiens) (UniProt Q9UPE1)",
    "parameter": "residual activity",
    "readoutValue": 119
  },
  {
    "chemSmiles": "Cn1cnc2cc3c(Nc4cccc(Br)c4)ncnc3cc21",
    "studySystem": "SRSF protein kinase 3 (Homo sapiens) (UniProt Q9UPE1)",
    "parameter": "residual activity",
    "readoutValue": 101
  },
  {
    "chemSmiles": "Cc1ccc(NC2=CC(=O)c3sc(C)nc3C2=O)cc1",
    "studySystem": "SRSF protein kinase 3 (Homo sapiens) (UniProt Q9UPE1)",
    "parameter": "residual activity",
    "readoutValue": 101
  },
  {
    "chemSmiles": "O=c1c2ccccc2[nH]c(=S)n1CCN1CCC(=C(c2ccc(F)cc2)c2ccc(F)cc2)CC1",
    "studySystem": "SRSF protein kinase 3 (Homo sapiens) (UniProt Q9UPE1)",
    "parameter": "residual activity",
    "readoutValue": 103
  },
  {
    "chemSmiles": "Cn1cc(/C=C2\\C(=O)Nc3ccc(S(N)(=O)=O)cc32)c2ccccc21",
    "studySystem": "SRSF protein kinase 3 (Homo sapiens) (UniProt Q9UPE1)",
    "parameter": "residual activity",
    "readoutValue": 103
  },
  {
    "chemSmiles": "CC(=O)O/N=C1\\C(=C2\\C(=O)Nc3cc(Br)ccc32)Nc2ccccc21",
    "studySystem": "SRSF protein kinase 3 (Homo sapiens) (UniProt Q9UPE1)",
    "parameter": "residual activity",
    "readoutValue": 96
  }
]
